System: MRC-5 cells
Assay details: Host cell cytotoxicity in MRC-5 cells
Assay type: cell-based, human
Protocol conditions: CSV supplement; decimal comma
Experimental endpoint: MRC-5 cells Human Lung Fibroblast Cells (cytotoxicity)

Recorded results for 5 molecules are shown here.
Molecule	Result
CC(C)C[C@@H]1NC(=O)[C@@H](NC(=O)OC(C)(C)C)Cc2ccc(cc2)Oc2ccc(cc2NC(=O)c2ccccn2)C(=O)CNC1=O [Compound 10]	>64 µM
C[C@@H]1NC(=O)[C@@H](NC(=O)OC(C)(C)C)Cc2ccc(cc2)Oc2ccc(cc2NC(=O)c2ccccn2)C(=O)CNC1=O [Compound 7]	>64 µM
CC(C)(C)OC(=O)N[C@H]1Cc2ccc(cc2)Oc2ccc(cc2NC(=O)c2ccccn2)C(=O)CNC(=O)[C@H](Cc2ccccc2)NC1=O [Compound 3]	57,6 µM
CC(=O)N[C@H]1Cc2ccc(cc2)Oc2ccc(cc2NC(=O)c2ccccn2)C(=O)CNC(=O)[C@H](Cc2ccccc2)NC1=O [Compound 11]	>64 µM
CC(C)(C)C(=O)N[C@H]1Cc2ccc(cc2)Oc2ccc(cc2NC(=O)c2ccccn2)C(=O)CNC(=O)[C@H](Cc2ccccc2)NC1=O [Compound 12]	>64 µM

**Query** Requested field: MRC-5 cells Human Lung Fibroblast Cells (cytotoxicity). Item: CC(=O)Nc1cc2ccc1Oc1ccc(cc1)C[C@H](NC(=O)OC(C)(C)C)C(=O)N[C@@H](Cc1ccccc1)C(=O)NCC2=O [Compound 2]
**Result** 50,5 µM

**Query** Repeat with COc1ccc(C[C@H](NC(=O)OC(C)(C)C)C(=O)N[C@@H](Cc2ccccc2)C(=O)NCC(=O)c2cccc(NC(=O)c3ccccn3)c2)cc1 [Compound 4]
**Result** >64 µM

**Query** Repeat with CC(C)(C)OC(=O)N[C@H]1Cc2ccc(cc2)Oc2ccc(cc2)C(=O)CNC(=O)[C@H](Cc2ccccc2)NC1=O [Compound 1]
**Result** >64 µM

###

Assay details: Clearance in mouse liver microsomes
Type: in vitro ADME
Protocol conditions: mouse, liver microsomes, CSV supplement; read-out: CLint in vitro Mouse Microsomes
Experimental endpoint: microsomal CLint (µL/min/mg)
Numbers only; they are read as µL/min/mg.

CC(=O)Nc1cc2ccc1Oc1ccc(cc1)C[C@H](NC(=O)OC(C)(C)C)C(=O)N[C@@H](Cc1ccccc1)C(=O)NCC2=O 257
CC(=O)N[C@H]1Cc2ccc(cc2)Oc2ccc(cc2NC(=O)c2ccccn2)C(=O)CNC(=O)[C@H](Cc2ccccc2)NC1=O 134

Let us examine a further case.
**Query** Requested field: microsomal CLint. Item: C[C@@H]1NC(=O)[C@@H](NC(=O)OC(C)(C)C)Cc2ccc(cc2)Oc2ccc(cc2NC(=O)c2ccccn2)C(=O)CNC1=O
**Result** 297

###

# maps each entry to its solubility kinetic
Assay details: Kinetic solubility in phosphate buffered saline at pH 7.4
Assay type: physicochemical
Protocol conditions: phosphate buffered saline, pH 7.4, CSV supplement; read-out: Kinetic solubility
Numbers only; they are read as µg/mL.

Recorded results for 2 molecules are shown here.
Molecule	Unit label	solubility kinetic
CC(=O)N[C@H]1Cc2ccc(cc2)Oc2ccc(cc2NC(=O)c2ccccn2)C(=O)CNC(=O)[C@H](Cc2ccccc2)NC1=O [Compound 11]	µg/mL	58.3
CC(C)(C)OC(=O)N[C@H]1Cc2ccc(cc2)Oc2ccc(cc2NC(=O)c2ccccn2)CCNC(=O)[C@H](Cc2ccccc2)NC1=O [Compound 6]	µg/mL	3.8

**Query** Requested field: solubility kinetic. Item: CC(C)(C)OC(=O)N[C@H]1Cc2ccc(cc2)Oc2ccc(cc2NC(=O)c2ccccn2)C(=O)CNC(=O)[C@H](Cc2ccccc2)NC1=O [Compound 3]
**Result** 1
